Please respond with reported efficacy in % (spider mites killed) for every item in the list.
# Tested on: Tetranychus urticae
# method: Tetranychus urticae - spray test, OP-resistant
# Format: in vivo
# recorded-conditions: 500 g/ha, after 6 days, bean leaf discs
Form entry: value (%) — number only.

Q: Find the recorded efficacy in % (spider mites killed) belonging to CC(C)Oc1ccc(-c2ncc(C(=O)N(C)c3cccnc3)n2C)cc1C#N [Example 105] and report it.
A: 100

Q: Find the recorded efficacy in % (spider mites killed) belonging to CN(C(=O)c1cnc(-c2cccc(C(F)(F)F)c2)n1C)c1cccnc1 [Example 52] and report it.
A: 90

Q: Find the recorded efficacy in % (spider mites killed) belonging to CN(C(=O)c1cnc(-c2cccc(C(F)(F)C(F)(F)F)c2)n1C)c1cccnc1 [Example 57] and report it.
A: 90

Q: Find the recorded efficacy in % (spider mites killed) belonging to CCOC(=O)c1cc(-c2ncc(C(=O)N(C)c3cccnc3)n2C)on1 [Example 72] and report it.
A: 90

* * *

# method: log P determination by HPLC on reversed-phase (C18) columns, OECD Guideline 117
# Assay type: physicochemical
# recorded-conditions: HPLC, acidic range pH 2.7, 0.1% aqueous formic acid/acetonitrile
# Experimental: The log P values were determined in accordance with OECD Guideline 117 (EC Directive 92/69/EEC) by HPLC (high-performance liquid chromatography) using reversed-phase (RP) columns (C18), by the following methods: [a] The LC-MS determination in the acidic range was carried out at pH 2.7 with 0.1% aqueous formic acid and acetonitrile (contains 0.1% formic acid) as mobile phases; linear gradient from 10% acetonitrile to 95% acetonitrile. [b] […]
Please respond with reported logp-acidic for every item in the list.
// no unit string in output, number only

Q: Find the recorded logp-acidic belonging to "CN(C(=O)c1cnc(-c2cccc(C#N)c2)n1C)c1cccnc1" and report it.
A: 0.91

Q: Find the recorded logp-acidic belonging to "CN(C(=O)c1cnc(-c2cccc(Cl)c2)n1C)c1cccnc1" and report it.
A: 1.29

Q: Find the recorded logp-acidic belonging to "CN(C(=O)c1cnc(-c2ccc(Cl)cc2Cl)n1C)c1cccnc1" and report it.
A: 1.66

Q: Find the recorded logp-acidic belonging to "CN(C(=O)c1cnc(-c2ccoc2)n1C)c1cccnc1" and report it.
A: 0.29

Q: Find the recorded logp-acidic belonging to "CN(C(=O)c1cnc(-c2cc(Cl)cc(C#N)c2)n1C)c1cccnc1" and report it.
A: 1.52

Q: Find the recorded logp-acidic belonging to "CN(C(=O)c1cnc(-c2cccc3c2OCO3)n1C)c1cccnc1" and report it.
A: 0.9

Q: Find the recorded logp-acidic belonging to "CN(C(=O)c1cnc(-c2ccc(F)c(C#N)c2)n1C)c1cccnc1" and report it.
A: 1.15

Q: Find the recorded logp-acidic belonging to "COc1cc(C#N)cc(-c2ncc(C(=O)N(C)c3cccnc3)n2C)c1" and report it.
A: 1.34

Q: Find the recorded logp-acidic belonging to "CN(C(=O)c1cnc(-c2ccc(Cl)c(Cl)c2)n1C)c1cccnc1" and report it.
A: 1.79

Q: Find the recorded logp-acidic belonging to "CN(C(=O)c1cnc(-c2cc(C#N)cc(C(F)(F)F)c2)n1C)c1cccnc1" and report it.
A: 1.85

Q: Find the recorded logp-acidic belonging to "Cc1cc(C)cc(-c2ncc(C(=O)N(C)c3cccnc3)n2C)c1" and report it.
A: 1.16

Q: Find the recorded logp-acidic belonging to "COc1ccc(-c2ncc(C(=O)N(C)c3cccnc3)n2C)cc1[N+](=O)[O-]" and report it.
A: 1.2

* * *

# method: log P determination by HPLC on reversed-phase (C18) columns, OECD Guideline 117
# Format: physicochemical
# recorded-conditions: HPLC, acidic range pH 2.7, 0.1% aqueous formic acid/acetonitrile
Parameter threshold = 1. Response is Y when logp-acidic meets or exceeds it, else N.

Q: Please tell me: is the molecule "COc1ccc(C#N)cc1-c1ncc(C(=O)N(C)c2cccnc2)n1C" at or over 1 in terms of logp-acidic?
A: N

Q: Please tell me: is the molecule "CN(C(=O)c1cnc(-c2ccc(Cl)c(C#N)c2)n1C)c1cccnc1" at or over 1 in terms of logp-acidic?
A: Y

Q: Please tell me: is the molecule "CCN(C(=O)c1cnc(-c2ccccn2)n1C)c1cccnc1" at or over 1 in terms of logp-acidic?
A: N

Q: Please tell me: is the molecule "CN(C(=O)c1cnc(-c2ccccc2Cl)n1C)c1cccnc1" at or over 1 in terms of logp-acidic?
A: Y

Q: Please tell me: is the molecule "COCc1cccc(-c2ncc(C(=O)N(C)c3cccnc3)n2C)c1" at or over 1 in terms of logp-acidic?
A: N

* * *

# method: log P determination by HPLC on reversed-phase (C18) columns, OECD Guideline 117
# Assay type: physicochemical
# recorded-conditions: pH 7.8
Please respond with reported logp-neutral for every item in the list.
// no unit string in output, number only

Q: Find the recorded logp-neutral belonging to "CN(C(=O)c1cnc(-c2ccccc2OCC(N)=O)n1C)c1cccnc1" and report it.
A: 1.03

Q: Find the recorded logp-neutral belonging to "COc1ccc(-c2ncc(C(=O)N(C)c3cccnc3)n2C)cn1" and report it.
A: 1.25

Q: Find the recorded logp-neutral belonging to "CN(C(=O)c1cnc(-c2cc(C(F)(F)F)cc(C(F)(F)F)c2)n1C)c1cccnc1" and report it.
A: 2.63

Q: Find the recorded logp-neutral belonging to "CC(=O)OCc1cc(-c2ncc(C(=O)N(C)c3cccnc3)n2C)ccc1F" and report it.
A: 1.81

Q: Find the recorded logp-neutral belonging to "CCOc1ncc(-c2ncc(C(=O)N(CC)c3cccnc3)n2C)cc1C#N" and report it.
A: 1.95

Q: Find the recorded logp-neutral belonging to "CC(C)Oc1ccc(-c2ncc(C(=O)N(C)c3cccnc3)n2C)cc1C#N" and report it.
A: 1.87

Q: Find the recorded logp-neutral belonging to "CCOC(=O)COc1cc(-c2ncc(C(=O)N(C)c3cccnc3)n2C)cc(F)c1F" and report it.
A: 2.02

Q: Find the recorded logp-neutral belonging to "CN(C(=O)c1cnc(-c2cccc3ccccc23)n1C)c1cccnc1" and report it.
A: 1.89

Q: Find the recorded logp-neutral belonging to "CN(C(=O)c1cnc(-c2cccc(CC(F)(F)F)c2)n1C)c1cccnc1" and report it.
A: 1.96

Q: Find the recorded logp-neutral belonging to "CCOc1ccc(-c2ncc(C(=O)N(C)c3cccnc3)n2C)cn1" and report it.
A: 1.53

* * *

# method: log P determination by HPLC on reversed-phase (C18) columns, OECD Guideline 117
# Assay type: physicochemical
# recorded-conditions: pH 7.8
Please respond with reported logp-neutral for every item in the list.
// no unit string in output, number only

Q: Find the recorded logp-neutral belonging to "CN(C(=O)c1cnc(-c2cccc(C(F)(F)F)c2)n1C)c1cccnc1" and report it.
A: 1.99

Q: Find the recorded logp-neutral belonging to "CN(C(=O)c1cnc(-c2cccc(C(F)F)c2)n1C)c1cccnc1" and report it.
A: 1.65

Q: Find the recorded logp-neutral belonging to "CN(C(=O)c1cnc(-c2cc(F)cc(C(F)(F)F)c2)n1C)c1cccnc1" and report it.
A: 2.14

Q: Find the recorded logp-neutral belonging to "CN(C(=O)c1cnc(-c2cccc(C(F)(F)F)n2)n1C)c1cccnc1" and report it.
A: 2.04

Q: Find the recorded logp-neutral belonging to "CN(C(=O)c1cnc(-c2cnn(-c3ccccc3C#N)c2)n1C)c1cccnc1" and report it.
A: 1.49

Q: Find the recorded logp-neutral belonging to "CN(C(=O)c1cnc(-c2cccc(C(F)(F)C(F)(F)F)c2)n1C)c1cccnc1" and report it.
A: 2.40

Q: Find the recorded logp-neutral belonging to CN(C(=O)c1cnc(-c2cccc([S+]([O-])C(F)(F)F)c2)n1C)c1cccnc1 (stereo not drawn) and report it.
A: 1.62

Q: Find the recorded logp-neutral belonging to "CN(C(=O)c1cnc(-c2cccc(SC(F)(F)F)c2)n1C)c1cccnc1" and report it.
A: 2.28

Q: Find the recorded logp-neutral belonging to "COc1cc(-c2ncc(C(=O)N(C)c3cccnc3)n2C)cnc1OC" and report it.
A: 1.28

* * *

# method: log P determination by HPLC on reversed-phase (C18) columns, OECD Guideline 117
# Assay type: physicochemical
# recorded-conditions: pH 2.7
value-kind: logp-acidic
// no unit string in output, number only

Q: Find the recorded logp-acidic belonging to "CN(C(=O)c1cnc(-c2cccc(C(F)F)c2)n1C)c1cccnc1" and report it.
A: 1.22

Q: Find the recorded logp-acidic belonging to "CN(C(=O)c1cnc(-c2cnn(-c3ccccc3C#N)c2)n1C)c1cccnc1" and report it.
A: 1.07

Q: Find the recorded logp-acidic belonging to "CN(C(=O)c1cnc(-c2cccc(C(F)(F)F)n2)n1C)c1cccnc1" and report it.
A: 1.91

Q: Find the recorded logp-acidic belonging to "COc1ccc(-c2ncc(C(=O)N(C)c3cccnc3)n2C)c(OC)c1" and report it.
A: 0.8

Q: Find the recorded logp-acidic belonging to "CN(C(=O)c1cnc(-c2cc(F)cc(C(F)(F)F)c2)n1C)c1cccnc1" and report it.
A: 1.90
